- subject-of-test: Nuclear receptor ROR-gamma (Mus musculus) (UniProt P51450)
- Sequence (P51450 whole entry, looked up): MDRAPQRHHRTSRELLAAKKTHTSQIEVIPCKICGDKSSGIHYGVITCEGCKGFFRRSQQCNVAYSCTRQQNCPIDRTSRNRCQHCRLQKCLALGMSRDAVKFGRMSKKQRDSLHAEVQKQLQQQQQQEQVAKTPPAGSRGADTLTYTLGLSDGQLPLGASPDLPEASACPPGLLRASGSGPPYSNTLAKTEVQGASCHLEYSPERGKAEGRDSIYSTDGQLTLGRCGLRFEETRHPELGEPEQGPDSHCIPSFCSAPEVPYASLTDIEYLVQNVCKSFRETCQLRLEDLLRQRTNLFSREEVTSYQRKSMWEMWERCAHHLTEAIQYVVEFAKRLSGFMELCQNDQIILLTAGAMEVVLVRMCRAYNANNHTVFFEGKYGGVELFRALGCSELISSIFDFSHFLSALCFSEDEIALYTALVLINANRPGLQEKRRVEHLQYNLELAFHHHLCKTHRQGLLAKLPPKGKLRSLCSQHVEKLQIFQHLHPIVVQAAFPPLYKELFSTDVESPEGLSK
- assay-info: qHTS for inhibitors of ROR gamma transcriptional activity; note: nearly all actives have a fitted effect of over 60% in size
- conditions: Drosophila S2 Gal4-RORgamma UAS-luciferase reporter, 20 h; series mostly up to 53.6 µM
- From the text: NIH Molecular Libraries Probe Production Network [MLPCN] NIH Chemical Genomics Center [NCGC] […] Small molecule inhibitors of ROR gamma activity are detected by a decrease in luciferase reporter activity. […]
Screen size: about 310,000 compounds; about 17,000 (5.5%) were called active. Another 11% or so got no clear call; they are omitted. Calls come from the whole dose curve; as a rule, active = well fitted inhibition curve with a large enough effect; inconclusive = small, poorly fitted or top-dose-only effect, or effect the other way; inactive = no such curve, though single readings can be large or run the other way. What follows is part of a selection rich in actives, with near analogues and random picks from the rest.
A correct response names exactly one class from class 1 (active), class 0 (inactive)

Incoming: In this assay, the call recorded for "CCSc1nc(O)c(C(c2cccc(OC)c2)c2c(O)nc(SCC)[nH]c2=O)c(=O)[nH]1" was what?
Outgoing: class 0

Incoming: Moving on to COc1cccc(NC(=O)C(C)Oc2ccccc2)c1 (stereo unspecified)
Outgoing: class 0

Incoming: Moving on to COc1ccccc1NC(=O)C(C)OC(=O)CC1CCCC1 (stereo unspecified)
Outgoing: class 0

Incoming: Moving on to "O=C(/C=C/c1ccc([N+](=O)[O-])o1)NNC(=O)c1ccc(F)cc1"
Outgoing: class 1

Incoming: Moving on to CCCCSCCCNC(=O)C1CCC(CNS(=O)(=O)c2ccc(NC(C)=O)cc2)CC1 (stereo unspecified)
Outgoing: class 0

Incoming: Moving on to "Cc1ccc(CNC(=O)Cn2cnc(S(=O)(=O)N3CCCCC3)c2)o1"
Outgoing: class 0

Incoming: Moving on to "CCn1c(CNS(=O)(=O)c2ccc(Cl)cc2)n[nH]c1=S"
Outgoing: class 0

Incoming: Moving on to "O=C(N/N=C/c1ccc([N+](=O)[O-])o1)c1cn(-c2ccccc2)nc1-c1ccc(F)cc1"
Outgoing: class 0

Incoming: Moving on to "O=C(Nc1ccc(NC(=O)c2cccs2)cn1)c1ccco1"
Outgoing: class 1

Incoming: Moving on to "CSC(=S)N/N=C/c1c[nH]c2ccccc12"
Outgoing: class 1

Incoming: Moving on to "CC(=O)c1cc(CN2CCC(n3nccc3NC(=O)c3ccccc3Cl)CC2)cs1"
Outgoing: class 0

Incoming: Moving on to "N#Cc1c(-c2ccccc2)nc(SCc2cccc(C(F)(F)F)c2)[nH]c1=O"
Outgoing: class 0

Incoming: Moving on to CCOc1ccc(CN2CCN(CCCc3ccccc3)C(CCO)C2)cc1 (stereo unspecified)
Outgoing: class 0

Incoming: Moving on to "Cc1cc(OCC(=O)Nc2c(C)n(C)n(-c3ccccc3)c2=O)ccc1[N+](=O)[O-]"
Outgoing: class 0

Incoming: Moving on to "NC(=O)CSc1c[nH]c2ccccc12"
Outgoing: class 0

Incoming: Moving on to "Cc1cc(NS(=O)(=O)c2ccc(NC(=O)c3cccnc3)cc2)nc(C)n1"
Outgoing: class 0
